Each entry below lists one item and its recorded pIC50 value.
System: MCF7
Protocol: The compound was evaluated for cytotoxicity by assessing 3H thymidine uptake in MCF-7 cell line
Format: functional, cell-based
Applied conditions: Homo sapiens
pIC50: −log10 of the molar value.
Metric: pIC50

{"Input smiles": "CC(C)(C)OC(=O)N[C@@H](Cc1ccc(O)cc1)C(=O)Nc1ccc(COC(=O)N(CCO)CCO)cc1", "Reported result": "< 3.05"}
{"Input smiles": "N[C@@H](Cc1ccc(O)cc1)C(=O)Nc1ccc(COC(=O)N(CCCl)CCCl)cc1", "Reported result": "< 3.05"}
